biological target: Cannabinoid receptor 1 (Rattus norvegicus); assay: […] [35S]GTP-gamma-S from rat cerebellar CB1 receptor; format: functional; conditions: Wistar

# STRUCTURE SMILES STRING, Emax [%]
records = [
    ("CCCCC/C=C\\C/C=C\\C/C=C\\C/C=C\\CCCNC(=O)CCO", 284),
    ("CC1=CC[C@@H]2[C@@H](C1)c1c(O)cc(C(C)(C)CCCCBr)cc1OC2(C)C", 400),
    ("CCCCCCC(C)(C)/C=C\\C/C=C\\C/C=C\\C/C=C\\CCCCOC(CO)CO", 352),
    ("CCCCC/C=C\\C/C=C\\C/C=C\\C/C=C\\CCCC(=O)C(F)(F)F", 161),
    ("CCCCCc1cc(O)c2c(c1)OC(C)(C)c1ccc(C)cc1-2", 131),
    ("CCCCCCC(C)(C)c1ccc([C@@H]2C[C@H](O)CC[C@H]2CCCO)c(O)c1", 443),
    ("CCCCC/C=C\\C/C=C\\C/C=C\\C/C=C\\CCCCNC(=O)CC", 213),
]
